tested on: Fluoribacter gormanii; assay: Activity at Fluoribacter gormanii 1K07 metallo-beta-lactamase FEZ-1
Overview of recorded Km for various compounds

Illustrative cases are given below, each with its answer.
{"STRUCTURE": "CC1(C)S[C@@H]2[C@H](NC(=O)[C@H](C(=O)O)c3ccsc3)C(=O)N2[C@H]1C(=O)O", "Km": "> 5 mM"}
{"STRUCTURE": "CCN1CCN(C(=O)N[C@@H](C(=O)N[C@@H]2C(=O)N3[C@@H]2SC(C)(C)[C@@H]3C(=O)O)c2ccccc2)C(=O)C1=O", "Km": "4.2 mM"}
{"STRUCTURE": "C[C@@H](O)[C@H]1C(=O)N2C(C(=O)O)=C(SCCNC=N)C[C@H]12", "Km": "> 1 mM"}

Kindly review the next compound as well.
Per the records, this compound ( CC1(C)S[C@@H]2[C@H](NC(=O)[C@H](N)c3ccccc3)C(=O)N2[C@H]1C(=O)O ) has Km equal to > 5 mM

====

Recorded kcat/Km by entry
tested on: Stenotrophomonas maltophilia; assay: Ratio of Kcat to Km for Stenotrophomonas maltophilia 1SML metallo-beta-lactamase L1
Reply with just the number (in ×10⁶ /M/s).

Examples with their reported kcat/Km follow.
{"STRUCTURE": "CCN1CCN(C(=O)N[C@@H](C(=O)N[C@@H]2C(=O)N3[C@@H]2SC(C)(C)[C@@H]3C(=O)O)c2ccccc2)C(=O)C1=O", "UNIT SPEC": "×10⁶ /M/s", "kcat/Km": 7}
{"STRUCTURE": "CC1(C)S[C@@H]2[C@H](NC(=O)[C@H](C(=O)O)c3ccsc3)C(=O)N2[C@H]1C(=O)O", "UNIT SPEC": "×10⁶ /M/s", "kcat/Km": 2.7}

Let us move to another entry and its kcat/Km.
The reported kcat/Km of the compound CC1(C)S[C@@H]2[C@H](NC(=O)[C@H](N)c3ccccc3)C(=O)N2[C@H]1C(=O)O was 4.4

====

Listing of recorded kcat/Km by entry.
test system: Fluoribacter gormanii; experiment: Ratio of Kcat to Km for Fluoribacter gormanii 1K07 metallo-beta-lactamase FEZ-1
Report the figure in ×10⁴ /M/s without appending any unit label.

{"STRUCTURE": "CC1(C)S[C@@H]2[C@H](NC(=O)[C@H](N)c3ccccc3)C(=O)N2[C@H]1C(=O)O", "kcat/Km [×10⁴ /M/s]": 1.1}
{"STRUCTURE": "CCN1CCN(C(=O)N[C@@H](C(=O)N[C@@H]2C(=O)N3[C@@H]2SC(C)(C)[C@@H]3C(=O)O)c2ccccc2)C(=O)C1=O", "kcat/Km [×10⁴ /M/s]": 1.2}

Shifting focus to the molecule that follows.
Lab entry: Fluoribacter gormanii assay, molecule CC1(C)S[C@@H]2[C@H](NC(=O)[C@H](C(=O)O)c3ccsc3)C(=O)N2[C@H]1C(=O)O , kcat/Km = 1.3

====

system: Stenotrophomonas maltophilia; assay: Activity at Stenotrophomonas maltophilia 1SML metallo-beta-lactamase L1
Measured Km, listed per entry.
Lab book: enter the figure in µM, no units written.

Past entries and their recorded results:
{"STRUCTURE": "CCN1CCN(C(=O)N[C@@H](C(=O)N[C@@H]2C(=O)N3[C@@H]2SC(C)(C)[C@@H]3C(=O)O)c2ccccc2)C(=O)C1=O", "UNIT SPEC": "µM", "VALUE MEASURED": 20}
{"STRUCTURE": "CC1(C)S[C@@H]2[C@H](NC(=O)[C@H](N)c3ccccc3)C(=O)N2[C@H]1C(=O)O", "UNIT SPEC": "µM", "VALUE MEASURED": 40}
{"STRUCTURE": "CC1(C)S[C@@H]2[C@H](NC(=O)[C@H](C(=O)O)c3ccsc3)C(=O)N2[C@H]1C(=O)O", "UNIT SPEC": "µM", "VALUE MEASURED": 140}

Please turn your attention to the following entry.
So, C[C@@H](O)[C@H]1C(=O)N2C(C(=O)O)=C(SCCNC=N)C[C@H]12 ? Its Km was 90
